assay: in vivo; settings: Sprague Dawley, rat, sc, 0.1 mg/kg
MEASUREMENT LABEL: Cmax (ng/mL)
Provide only the numeric value, understood in ng/mL.

Record request: Cmax value, item CCNC(=O)[C@@H]1CCCN1C(=O)[C@H](CCCNC(=N)N)NC(=O)[C@H](CC(C)C)NC(=O)[C@@H](CC(C)C)NC(=O)[C@H](Cc1ccc(O)cc1)NC(=O)[C@H](CO)NC(=O)[C@H](Cc1c[nH]c2ccccc12)NC(=O)[C@H](Cc1c[nH]cn1)NC(=O)[C@@H]1CCC(=O)N1 [Leuprolide]
78.9

----------
test: Vancomycin pharmacokinetics after i.v. or ileum administration (Example 5); format: in vivo, Sprague Dawley rats; details: Sprague Dawley, rat, plasma, iv; vancomycin 5 mg/kg i.v., anesthetized rats
Counter-ions that a name gives are not always drawn.
MEASUREMENT LABEL: Cmax (ng/mL)
Provide only the numeric value, understood in ng/mL.

Record request: Cmax value, item CN[C@H](CC(C)C)C(=O)N[C@H]1C(=O)N[C@@H](CC(N)=O)C(=O)N[C@H]2C(=O)N[C@H]3C(=O)N[C@H](C(=O)N[C@H](C(=O)O)c4cc(O)cc(O)c4-c4cc3ccc4O)[C@H](O)c3ccc(c(Cl)c3)Oc3cc2cc(c3O[C@@H]2O[C@H](CO)[C@@H](O)[C@H](O)[C@H]2O[C@H]2C[C@](C)(N)[C@H](O)[C@H](C)O2)Oc2ccc(cc2Cl)[C@H]1O [Vancomycin, Vancomycin hydrochloride]
8800

----------
test: Vancomycin pharmacokinetics after i.v. or ileum administration (Example 5); type: in vivo, Sprague Dawley rats; conditions: Sprague Dawley, rat, plasma; vancomycin 20 mg/kg into ileum; lauroyl carnitine 50 mg/ml, CuSO4 1 mg/ml, sodium ascorbate 250 mg/ml; anesthetized rats
Structures can show the parent of a compound that is named as a salt.
MEASUREMENT LABEL: AUC(0-t)
Please answer using the number first and the unit second.

Record request: AUC(0-t) value, item CN[C@H](CC(C)C)C(=O)N[C@H]1C(=O)N[C@@H](CC(N)=O)C(=O)N[C@H]2C(=O)N[C@H]3C(=O)N[C@H](C(=O)N[C@H](C(=O)O)c4cc(O)cc(O)c4-c4cc3ccc4O)[C@H](O)c3ccc(c(Cl)c3)Oc3cc2cc(c3O[C@@H]2O[C@H](CO)[C@@H](O)[C@H](O)[C@H]2O[C@H]2C[C@](C)(N)[C@H](O)[C@H](C)O2)Oc2ccc(cc2Cl)[C@H]1O [Vancomycin, Vancomycin hydrochloride]
3000 ng·h/mL

----------
assay: Octreotide pharmacokinetics after s.c. or ileum administration (Example 9); format: in vivo, Sprague Dawley rats; details: Sprague Dawley, rat, plasma, sc; octreotide 1 mg/kg s.c., anesthetized rats (n = 3)
MEASUREMENT LABEL: Cmax (µg/mL)
Provide only the numeric value, understood in µg/mL.

Record request: Cmax value, item C[C@@H](O)[C@@H]1NC(=O)[C@H](CCCCN)NC(=O)[C@@H](Cc2c[nH]c3ccccc23)NC(=O)[C@H](Cc2ccccc2)NC(=O)[C@@H](NC(=O)[C@H](N)Cc2ccccc2)CSSC[C@@H](C(=O)N[C@H](CO)[C@@H](C)O)NC1=O [Octreotide]
0.154

----------
test: Compatibility of absorption enhancers with Cu2+ and Cu+ salts (dissolution in aqueous medium); type: physicochemical; settings: absorption enhancer 10 mg/ml; CuSO4 1 mg/ml; sodium ascorbate 10 mg/ml
MEASUREMENT LABEL: Dissolution in aqueous medium (2 ml)

Example compounds with recorded Dissolution in aqueous medium (2 ml):
* CCCCCCCCCCCCO[C@@H]1O[C@H](CO)[C@@H](O[C@H]2O[C@H](CO)[C@@H](O)[C@H](O)[C@H]2O)[C@H](O)[C@H]1O [n-Dodecyl-beta-D-maltoside] | Clear solution
* CCCCCCCC(=O)[O-].[Na+] [Sodium caprylate] | Precipitation
* CCCCCCCCCC(=O)[O-].[Na+] [Sodium caprate] | Precipitation
* O=C([O-])c1ccccc1O.[Na+] [Sodium salicylate] | Clear solution
* CCCCCCCCO[C@@H]1O[C@H](CO)[C@@H](O)[C@H](O)[C@H]1O [n-Octyl-beta-D-glucopyranoside] | Clear solution

Record request: Dissolution in aqueous medium (2 ml) value, item CCCCCCCCCCCCOS(=O)(=O)[O-].[Na+] [Sodium dodecyl sulfate]
Clear solution

Record request: Dissolution in aqueous medium (2 ml) value, item O=C(O)CN(CCN(CC(=O)O)CC(=O)O)CC(=O)O [EDTA, ethylenediaminetetraacetic acid]
Clear solution

Record request: Dissolution in aqueous medium (2 ml) value, item O=C([O-])CC(O)(CC(=O)[O-])C(=O)[O-].[Na+].[Na+].[Na+] [Sodium citrate]
Clear solution

Record request: Dissolution in aqueous medium (2 ml) value, item CCCCCCCCCCCC(=O)OC(CC(=O)O)C[N+](C)(C)C.[Cl-] (stereo not drawn) [Lauroyl carnitine]
Clear solution

----------
test: Octreotide pharmacokinetics after s.c. or ileum administration (Example 9); assay type: in vivo, Sprague Dawley rats; conditions: Sprague Dawley, rat, plasma, other: into distal small intestine (ileum); octreotide 0.92 mg/kg ileum (n = 8); lauroyl carnitine chloride 30 mg/ml, CuSO4 1 mg/ml, sodium ascorbate 30 mg/ml, TRIS 22.5 mg/ml; read-out: AUC(0-90) (converted)
MEASUREMENT LABEL: AUC(0-t) (ng·h/mL)
Provide only the numeric value, understood in ng·h/mL.

Record request: AUC(0-t) value, item C[C@@H](O)[C@@H]1NC(=O)[C@H](CCCCN)NC(=O)[C@@H](Cc2c[nH]c3ccccc23)NC(=O)[C@H](Cc2ccccc2)NC(=O)[C@@H](NC(=O)[C@H](N)Cc2ccccc2)CSSC[C@@H](C(=O)N[C@H](CO)[C@@H](C)O)NC1=O [Octreotide]
25.1

----------
assay: in vivo; conditions: Sprague Dawley, rat, sc, 0.1 mg/kg
MEASUREMENT LABEL: Tmax

Record request: Tmax value, item CCNC(=O)[C@@H]1CCCN1C(=O)[C@H](CCCNC(=N)N)NC(=O)[C@H](CC(C)C)NC(=O)[C@@H](CC(C)C)NC(=O)[C@H](Cc1ccc(O)cc1)NC(=O)[C@H](CO)NC(=O)[C@H](Cc1c[nH]c2ccccc12)NC(=O)[C@H](Cc1c[nH]cn1)NC(=O)[C@@H]1CCC(=O)N1 [Leuprolide]
20 to 40 min

----------
assay: In vitro compatibility of absorption enhancers with zinc sulfate (Example 16); format: physicochemical; details: absorption enhancer 10 mg/ml with desmopressin acetate and ZnSO4 5 mg/ml, in 2 ml aqua purificata, visual examination
MEASUREMENT LABEL: Dissolution in aqueous medium (2 ml)

* C[C@H](CCC(=O)[O-])[C@H]1CC[C@H]2[C@@H]3[C@H](O)C[C@@H]4C[C@H](O)CC[C@]4(C)[C@H]3C[C@H](O)[C@]12C.[Na+] [Sodium cholate] | Precipitation
* CCCCCCCCCCCCO[C@@H]1O[C@H](CO)[C@@H](O[C@H]2O[C@H](CO)[C@@H](O)[C@H](O)[C@H]2O)[C@H](O)[C@H]1O [n-Dodecyl-beta-D-maltoside] | Clear solution
* CCCCCCCCCCCC(=O)OC(CC(=O)O)C[N+](C)(C)C.[Cl-] (stereo not drawn) [Lauroyl carnitine HCl] | Clear solution
* CCCCCCCCCCCCOS(=O)(=O)[O-].[Na+] [Sodium dodecyl sulfate] | Clear solution
* C[C@H](CCC(=O)O)[C@H]1CC[C@H]2[C@@H]3[C@H](O)C[C@@H]4C[C@H](O)CC[C@]4(C)[C@H]3C[C@H](O)[C@]12C [Cholic acid] | Precipitation
* CCCCCCCCCC(=O)[O-].[Na+] [Sodium caprate] | Precipitation

Record request: Dissolution in aqueous medium (2 ml) value, item CCCCCCCCO[C@@H]1O[C@H](CO)[C@@H](O)[C@H](O)[C@H]1O [n-Octyl-beta-D-glucopyranoside]
Clear solution

Record request: Dissolution in aqueous medium (2 ml) value, item CCCCCCCC(=O)[O-].[Na+] [Sodium caprylate]
Precipitation

Record request: Dissolution in aqueous medium (2 ml) value, item O=C(O)CN(CCN(CC(=O)O)CC(=O)O)CC(=O)O [EDTA, ethylenediaminetetraacetic acid]
Clear solution

----------
experiment: Octreotide pharmacokinetics after s.c. or ileum administration (Example 9); type: in vivo, Sprague Dawley rats; settings: Sprague Dawley, rat, plasma; octreotide 0.92 mg/kg ileum; lauroyl carnitine chloride 30 mg/ml, CuSO4 1 mg/ml, sodium ascorbate 30 mg/ml, TRIS 22.5 mg/ml; vs s.c.
MEASUREMENT LABEL: F rel

Record request: F rel value, item C[C@@H](O)[C@@H]1NC(=O)[C@H](CCCCN)NC(=O)[C@@H](Cc2c[nH]c3ccccc23)NC(=O)[C@H](Cc2ccccc2)NC(=O)[C@@H](NC(=O)[C@H](N)Cc2ccccc2)CSSC[C@@H](C(=O)N[C@H](CO)[C@@H](C)O)NC1=O [Octreotide]
16.3%

src = patent US20170304195A1
